- Experimental Target: PI3K (Homo sapiens)
- Sequence (P42336 whole entry): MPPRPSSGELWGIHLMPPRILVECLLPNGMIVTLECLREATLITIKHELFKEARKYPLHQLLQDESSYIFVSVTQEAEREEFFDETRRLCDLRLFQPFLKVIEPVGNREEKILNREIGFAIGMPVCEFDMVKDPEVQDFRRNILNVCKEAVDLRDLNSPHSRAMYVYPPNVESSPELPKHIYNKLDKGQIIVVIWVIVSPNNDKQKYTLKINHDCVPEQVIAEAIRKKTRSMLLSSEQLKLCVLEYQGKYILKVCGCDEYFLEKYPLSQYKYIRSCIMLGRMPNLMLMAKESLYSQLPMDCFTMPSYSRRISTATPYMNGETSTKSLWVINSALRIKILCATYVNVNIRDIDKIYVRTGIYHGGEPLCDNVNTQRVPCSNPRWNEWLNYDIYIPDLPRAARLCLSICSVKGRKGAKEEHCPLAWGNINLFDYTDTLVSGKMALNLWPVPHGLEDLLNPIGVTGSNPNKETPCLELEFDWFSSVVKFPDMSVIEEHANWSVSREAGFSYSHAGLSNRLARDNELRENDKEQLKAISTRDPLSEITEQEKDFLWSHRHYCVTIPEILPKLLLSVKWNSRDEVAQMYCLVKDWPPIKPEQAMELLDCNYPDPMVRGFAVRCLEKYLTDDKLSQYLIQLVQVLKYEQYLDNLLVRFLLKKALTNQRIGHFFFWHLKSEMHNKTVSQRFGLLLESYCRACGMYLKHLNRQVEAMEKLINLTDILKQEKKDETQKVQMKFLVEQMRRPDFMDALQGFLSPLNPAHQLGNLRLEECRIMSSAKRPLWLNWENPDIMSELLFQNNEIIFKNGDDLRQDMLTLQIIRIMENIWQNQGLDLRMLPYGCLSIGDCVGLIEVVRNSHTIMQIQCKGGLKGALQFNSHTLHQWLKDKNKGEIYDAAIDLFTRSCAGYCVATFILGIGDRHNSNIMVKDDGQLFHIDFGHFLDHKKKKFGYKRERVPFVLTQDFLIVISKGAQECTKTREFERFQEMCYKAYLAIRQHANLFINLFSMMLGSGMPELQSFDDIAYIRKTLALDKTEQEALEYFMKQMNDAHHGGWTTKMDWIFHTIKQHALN
- Sequence (P27986 whole entry partner): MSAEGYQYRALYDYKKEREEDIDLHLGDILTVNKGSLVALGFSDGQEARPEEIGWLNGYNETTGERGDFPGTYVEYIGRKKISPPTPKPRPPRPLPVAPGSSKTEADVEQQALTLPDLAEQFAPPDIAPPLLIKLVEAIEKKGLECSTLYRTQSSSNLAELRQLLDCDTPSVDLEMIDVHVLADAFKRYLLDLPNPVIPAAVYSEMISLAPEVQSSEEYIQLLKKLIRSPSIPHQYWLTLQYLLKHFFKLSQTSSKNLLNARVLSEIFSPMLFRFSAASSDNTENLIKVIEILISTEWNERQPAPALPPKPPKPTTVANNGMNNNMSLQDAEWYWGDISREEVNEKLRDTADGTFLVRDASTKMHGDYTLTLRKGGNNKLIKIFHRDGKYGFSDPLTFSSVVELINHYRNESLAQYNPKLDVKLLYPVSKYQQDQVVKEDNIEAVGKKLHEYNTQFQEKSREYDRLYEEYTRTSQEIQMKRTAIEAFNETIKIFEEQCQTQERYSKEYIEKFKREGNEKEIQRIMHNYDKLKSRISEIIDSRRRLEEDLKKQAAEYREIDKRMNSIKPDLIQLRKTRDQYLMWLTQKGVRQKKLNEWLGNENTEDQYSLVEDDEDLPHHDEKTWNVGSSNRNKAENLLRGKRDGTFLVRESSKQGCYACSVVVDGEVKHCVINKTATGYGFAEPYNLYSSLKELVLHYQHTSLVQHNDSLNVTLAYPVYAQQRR
- Assay Info: Fluorescence polarization assay for PI3K;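 also: PI3K kinase reaction on PIP2 with ATP, 30-60 min, product sensed by GST-GRP with red probe in fluorescence polarization (mP), controls without enzyme and at zero time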
- Type: biochemical
- Assay Conditions: PI3Kα; read-out: PI3Kα IC50
pIC50: −log10 of the molar value.
Entries get a class label from measured pIC50. See ranges: bin A (below 6), bin B (6 to below 7), bin C (7 or more)

Compound	Experimental Target	Discrete Label
O=C(NCCF)Nc1cc(F)c(-c2nc(N3CCOCC3)c3cnn(C4CCN(C(=O)c5cccnc5)CC4)c3n2)cc1F [Example 467]	PI3K (Homo sapiens)	bin A
O=C(Nc1ccccc1)Nc1ccc(-c2nc(N3CCOCC3)c3cnn(C4CCN(Cc5cccnc5)CC4)c3n2)cc1F [Compound 598]	PI3K (Homo sapiens)	bin C
COC(=O)Nc1ccc(-c2nc(N3CCOCC3)c3cnn(C4CCN(Cc5ccc(Cl)nc5)CC4)c3n2)cc1 [Example 454]	PI3K (Homo sapiens)	bin B
CCOC(=O)Nc1ccc(-c2nc(N3CCOCC3)c3cnn(C4CCN(C(=O)OC)CC4)c3n2)cc1 [Compound 900]	PI3K (Homo sapiens)	bin A
COC(=O)N1CCC(n2ncc3c(N4CCOCC4)nc(-c4ccc(NC(=O)Nc5ccccc5F)cc4)nc32)CC1 [Compound 860]	PI3K (Homo sapiens)	bin C
O=C(Nc1ccc(-c2nc(N3CCOCC3)c3cnn(C4CCN(C(=O)c5ccccc5)CC4)c3n2)cc1)Nc1cccnc1 [Example 379]	PI3K (Homo sapiens)	bin C
CN(C)CCNC(=O)c1ccc(-c2nc(N3CCOCC3)c3cnn(-c4ccccc4)c3n2)cc1 [Compound 103]	PI3K (Homo sapiens)	bin B
CNC(=O)Nc1ccc(-c2nc(N3CCOCC3)c3cnn(C4CCC(O)CC4)c3n2)cc1 (centres unmarked) [Compound 568]	PI3K (Homo sapiens)	bin C
CNC(=O)Nc1ccc(-c2nc(N3CCOCC3)c3cnn(C4CCN(Cc5ccc(F)cc5)CC4)c3n2)cc1 [Compound 427]	PI3K (Homo sapiens)	bin C
CC(C)(C)COC(=O)N1CCC(n2ncc3c(N4CCOCC4)nc(-c4ccc(NC(=O)Nc5cccnc5)cc4)nc32)CC1 [Compound 877]	PI3K (Homo sapiens)	bin C
O=C(Nc1cc(F)c(-c2nc(N3CCOCC3)c3cnn(C4CCN(C(=O)c5cccnc5)CC4)c3n2)cc1F)NC1CC1 [Compound 712]	PI3K (Homo sapiens)	bin A
CN(C)CC(=O)Nc1ccc(-c2nc(N3CCOCC3)c3cnn(C4CCCCO4)c3n2)cc1 (centres unmarked) [Compound 275]	PI3K (Homo sapiens)	bin A
CNC(=O)Nc1ccc(-c2nc(N3CCOCC3)c3cnn(C4CCN(Cc5cccc(F)c5)CC4)c3n2)cc1 [Compound 428]	PI3K (Homo sapiens)	bin C
O=C(Nc1ccc(-c2nc(N3CCOCC3)c3cnn(C4CCN(Cc5cccnc5)CC4)c3n2)cc1)Nc1cccs1 [Compound 648]	PI3K (Homo sapiens)	bin C
CNC(=O)Nc1ccc(-c2nc(N3CCOCC3)c3cnn(C4CCN(C(=O)OCc5ccccc5)CC4)c3n2)cc1 [Compound 880]	PI3K (Homo sapiens)	bin C
CNC(=O)Nc1ccc(-c2nc(N3CCOCC3)c3cnn(C4CCN(Cc5cccc(OC)c5)CC4)c3n2)cc1 [Compound 645]	PI3K (Homo sapiens)	bin C
COCCNCCc1ccc(NC(=O)Nc2ccc(-c3nc(N4CCOCC4)c4cnn(C5CCN(C(=O)OC)CC5)c4n3)cc2)cc1 [Compound 922]	PI3K (Homo sapiens)	bin C
CNC(=O)Nc1ccc(-c2nc(N3CCOCC3)c3cnn(C4CCN(C(=O)c5cccnc5)CC4)c3n2)cc1 [Example 226]	PI3K (Homo sapiens)	bin B
